Target: MMP-1 (Homo sapiens, UniProt P03956)
Experiment: MMP-1 inhibitory action (Type I collagen Activity Measurement kit, FITC-labeled collagen type I)
Format: biochemical
Details: Experimental Example 2; read-out: IC50 MMP1
pIC50: −log10 of the molar value.
endpoint: pIC50

Reference set (4 entries):
compound: CC1[C@H](c2ccccc2)[C@]1(NS(=O)(=O)N1Cc2ccc(Cl)cc2C1)C(=O)O (stereo partly drawn) [Example 2-538]
endpoint: pIC50
observed_value: ≤ 6.00

compound: O=C(O)[C@]1(NS(=O)(=O)c2ccc(-c3cc(C(F)(F)F)on3)o2)C[C@@H]1c1ccccc1 [Example 2-371]
endpoint: pIC50
observed_value: ≤ 5.00

compound: CC1[C@H](c2ccccc2)[C@]1(NS(=O)(=O)c1ccc(OCc2ccc(Cl)cc2Cl)cc1)C(=O)NO (stereo partly drawn) [Example 2-325]
endpoint: pIC50
observed_value: ≤ 5.00

compound: O=C(NO)C1(NS(=O)(=O)c2ccc(-c3ccc(Cl)cc3)s2)C2Cc3ccccc3C21 (stereo not drawn) [Example 2-447]
endpoint: pIC50
observed_value: > 6.00

Count: 5. Required value per item: pIC50.
1. C[C@]1(c2ccccc2)C[C@@]1(NS(=O)(=O)c1ccc(/C=C/C(F)(F)F)s1)C(=O)O [Example 2-562]
2. CC1C(c2ccccc2)C1(NS(=O)(=O)c1ccc(-c2cccc(O)c2)s1)C(=O)O (stereo not drawn) [Example 2-509]
3. O=C(O)C1(NS(=O)(=O)c2cn3cc(-c4ccc(F)cc4)nc3s2)CC1c1ccccc1 (stereo not drawn) [Example 2-491]
4. C[C@]1(c2ccccc2)C[C@@]1(NS(=O)(=O)c1ccc2c(c1)Cc1cc(Cl)ccc1-2)C(=O)O [Example 2-568]
5. O=C(O)C1(NS(=O)(=O)c2ccc(-c3ccc(Cl)cc3)s2)CC1(CSCCO)c1ccccc1 (stereo not drawn) [Example 2-345]

result:
["≤ 6.00", "≤ 6.00", "≤ 5.00", "> 6.00", "≤ 5.00"]

Count: 5. Required value per item: pIC50.
1. CC1[C@H](c2ccccc2)[C@]1(NS(=O)(=O)c1ccc(-c2nc3cc(Cl)ccc3[nH]2)s1)C(=O)O (stereo partly drawn) [Example 2-604]
2. C[C@]1(c2ccccc2)C[C@@]1(NS(=O)(=O)c1ccc(-c2cc(C(F)F)no2)s1)C(=O)O [Example 2-422]
3. C[C@]1(c2ccccc2)C[C@@]1(NS(=O)(=O)c1ccc(-c2ccc3c(c2)OC(F)(F)O3)s1)C(=O)O [Example 2-544]
4. CC1[C@H](c2ccccc2)[C@]1(NS(=O)(=O)c1ccc(-c2cc(C(F)(F)F)on2)o1)C(=O)O (stereo partly drawn) [Example 2-372]
5. Cc1cc(C2CC2(NS(=O)(=O)c2ccc(-c3cc(C(F)(F)F)on3)s2)C(=O)O)no1 (stereo not drawn) [Example 2-314]

result:
1: ≤ 6.00; 2: > 6.00; 3: ≤ 6.00; 4: ≤ 5.00; 5: ≤ 5.00

====

Molecular target: UniProtKB P03956
Sequence (P03956 100-469): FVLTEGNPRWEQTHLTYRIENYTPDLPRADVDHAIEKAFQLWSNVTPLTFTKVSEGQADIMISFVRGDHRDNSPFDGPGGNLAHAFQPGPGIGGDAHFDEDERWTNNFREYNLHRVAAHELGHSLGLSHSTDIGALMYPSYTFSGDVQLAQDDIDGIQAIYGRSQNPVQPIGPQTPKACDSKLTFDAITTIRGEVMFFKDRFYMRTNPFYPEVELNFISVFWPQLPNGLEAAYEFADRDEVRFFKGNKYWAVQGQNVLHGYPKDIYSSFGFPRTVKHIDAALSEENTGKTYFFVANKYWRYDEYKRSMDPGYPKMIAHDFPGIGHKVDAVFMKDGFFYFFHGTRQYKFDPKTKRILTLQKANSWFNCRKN
Assay: MMP-1 inhibitory action (Type I collagen Activity Measurement kit, FITC-labeled collagen type I)
Format: biochemical
Conditions: Experimental Example 2; read-out: IC50 MMP1
endpoint: IC50

molecule: O=C(O)[C@]1(NS(=O)(=O)c2ccc(-n3cc(C(F)(F)F)cn3)nc2)C[C@@H]1c1ccccc1
study_system: UniProtKB P03956
IC50: ≥ 1 µM

molecule: CC(C)N1CCN(Cc2cccc([C@H]3C[C@@]3(NS(=O)(=O)c3ccc(-c4cc(C(F)(F)F)on4)s3)C(=O)O)c2)CC1
study_system: UniProtKB P03956
IC50: ≥ 1 µM

Count: 2. Required value per item: IC50.
1. CCC1[C@H](c2ccccc2)[C@]1(NS(=O)(=O)c1ccc(-c2cc(C(F)(F)F)on2)s1)C(=O)O (stereo partly drawn)
2. CC1[C@H](c2ccccc2)[C@]1(NS(=O)(=O)c1ccc(-c2ccc(Cl)cc2F)s1)C(=O)O (stereo partly drawn)

result:
1. < 0.1 µM
2. < 1 µM

====

Biological target: MMP-1 (Homo sapiens, UniProt P03956)
Assay: MMP-1 inhibitory action (Type I collagen Activity Measurement kit, FITC-labeled collagen type I)
Assay type: biochemical
Settings: Experimental Example 2; read-out: IC50 MMP1
Description: For MMP-1 Assay, Type I collagen Activity Measurement kit (YAGAI YU-72013) modified to a 96-well plate format was used. The principle of the kit is based on the property of collagen that becomes soluble in ethanol after being cleaved by MMP-1. […] The reaction was terminated by addition of Tris-HCl buffer containing ethanol. […] The collagenase activity of MMP-1 was determined by measuring FITC fluorescence intensity (excitation wavelength 485 nm, emission wavelength 530 nm) of each well. […]
Field: IC50. Provide a value for each of the compounds that follow.

Count: 7. Required value per item: IC50.
1. C[C@]1(c2ccccc2)C[C@@]1(NS(=O)(=O)c1ccc(-c2ccc(CO)cc2)s1)C(=O)O
2. C[C@@H]1CN(CC2(c3ccccc3)CC2(NS(=O)(=O)c2ccc(-c3ccc(Cl)cc3)s2)C(=O)O)C[C@H](C)O1 (some centres unmarked)
3. COc1cc(-c2ccc(S(=O)(=O)N[C@@]3(C(=O)O)C[C@]3(C)c3ccccc3)s2)ccc1Cl
4. C[C@]1(c2ccccc2)C[C@@]1(NS(=O)(=O)c1cn2cc(-c3ccccc3)nc2s1)C(=O)O
5. Cc1nc(-c2ccc(S(=O)(=O)N[C@@]3(C(=O)O)C(C)[C@@H]3c3ccccc3)s2)no1 (some centres unmarked)
6. CC(=O)c1cnn(-c2ccc(S(=O)(=O)N[C@@]3(C(=O)O)C(C)[C@@H]3c3ccccc3)s2)c1 (some centres unmarked)
7. O=C(Cc1ccc([C@@H]2C[C@]2(NS(=O)(=O)c2ccc(-c3cc(C(F)(F)F)on3)s2)C(=O)O)cc1)N1CCOCC1

result:
["< 1000 nM", "≥ 10000 nM", "≥ 1000 nM", "< 1000 nM", "≥ 10000 nM", "< 100 nM", "< 1000 nM"]

Count: 6. Required value per item: IC50.
1. O=C(O)[C@]1(NS(=O)(=O)c2ccc(-c3cc(C(F)(F)F)on3)s2)C[C@@H]1c1ccc(CCCO)cc1
2. O=C(NCC1(c2ccccc2)CC1(NS(=O)(=O)c1ccc(-c2ccc(Cl)cc2)s1)C(=O)O)C1CCCCC1 (centres unmarked)
3. NC(=O)OCC1(c2ccccc2)CC1(NS(=O)(=O)c1ccc(-c2cc(C(F)(F)F)on2)s1)C(=O)O (centres unmarked)
4. CN1CCC2C(c3ccccc31)C2(NS(=O)(=O)c1ccc(-c2ccc(Cl)cc2)s1)C(=O)O (centres unmarked)
5. CN(C)c1cc(-c2ccc(S(=O)(=O)N[C@@]3(C(=O)O)C[C@]3(C)c3ccccc3)s2)no1
6. CN(C)C(=O)OCCC1(c2ccccc2)CC1(NS(=O)(=O)c1ccc(-c2ccc(Cl)cc2)s1)C(=O)O (centres unmarked)

result:
< 1000 nM
≥ 10000 nM
≥ 1000 nM
≥ 1000 nM
< 1000 nM
≥ 1000 nM

query: Give its IC50 value. Item: O=C1NCc2ccccc2C2CC12NS(=O)(=O)c1ccc(-c2ccc(Cl)cc2)s1 (centres unmarked)
result: ≥ 10000 nM

====

Molecular target: aggrecanase-1 (Homo sapiens)
Sequence (O75173 213-837, species assumed): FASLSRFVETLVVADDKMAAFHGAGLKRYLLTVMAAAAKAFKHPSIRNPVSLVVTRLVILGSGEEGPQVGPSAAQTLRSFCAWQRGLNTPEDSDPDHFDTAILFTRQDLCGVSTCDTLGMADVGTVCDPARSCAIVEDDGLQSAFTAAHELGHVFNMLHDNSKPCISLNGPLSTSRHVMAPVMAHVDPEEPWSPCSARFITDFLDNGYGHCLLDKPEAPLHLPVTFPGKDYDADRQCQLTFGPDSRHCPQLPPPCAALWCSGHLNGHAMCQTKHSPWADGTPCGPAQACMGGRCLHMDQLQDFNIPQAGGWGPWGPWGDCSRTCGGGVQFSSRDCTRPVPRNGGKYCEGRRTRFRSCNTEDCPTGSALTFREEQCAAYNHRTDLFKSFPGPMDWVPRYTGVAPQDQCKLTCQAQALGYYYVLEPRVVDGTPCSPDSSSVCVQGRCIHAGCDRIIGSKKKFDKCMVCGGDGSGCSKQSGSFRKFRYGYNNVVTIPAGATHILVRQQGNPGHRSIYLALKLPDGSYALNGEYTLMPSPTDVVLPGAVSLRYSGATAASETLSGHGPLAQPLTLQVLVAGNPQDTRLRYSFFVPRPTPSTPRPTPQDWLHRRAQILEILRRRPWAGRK
Experiment: Aggrecanase-1 inhibitory action (Particle Assay, GAG release from aggrecan-containing polyacrylamide particles)
Assay type: biochemical
Details: Experimental Example 1; read-out: IC50 AG1
pIC50: −log10 of the molar value.
Field: pIC50. Provide a value for each of the molecules that follow.

Reference set (6 entries):
molecule: O=C(O)CSCC1(c2ccccc2)CC1(NS(=O)(=O)c1ccc(-c2cc(C(F)(F)F)on2)s1)C(=O)O (stereo not drawn) [Example 2-410]
study_system: aggrecanase-1 (Homo sapiens)
pIC50: > 7.00

molecule: CC1[C@H](c2ccccc2)[C@]1(NS(=O)(=O)N1CCCN(c2ccc(F)cc2)CC1)C(=O)O (stereo partly drawn) [Example 2-472]
study_system: aggrecanase-1 (Homo sapiens)
pIC50: > 6.00

molecule: CC1C(c2ccccc2)C1(NS(=O)(=O)c1ccc(CCc2ccccc2)s1)C(=O)O (stereo not drawn) [Example 2-541]
study_system: aggrecanase-1 (Homo sapiens)
pIC50: ≤ 6.00

molecule: COCCN(C)C(=O)c1ccc(C2(CCCOC(C)=O)CC2(NS(=O)(=O)c2ccc(-c3cc(C(F)(F)F)on3)s2)C(=O)O)cc1 (stereo not drawn) [Example 2-271]
study_system: aggrecanase-1 (Homo sapiens)
pIC50: ≤ 6.00

molecule: COc1ccc(-c2ccc(S(=O)(=O)N[C@@]3(C(=O)O)C[C@]3(C)c3ccccc3)s2)cc1CO [Example 2-592]
study_system: aggrecanase-1 (Homo sapiens)
pIC50: ≤ 6.00

molecule: CCNC(=O)NCC1(c2ccccc2)CC1(NS(=O)(=O)c1ccc(-c2ccc(Cl)cc2)s1)C(=O)O (stereo not drawn) [Example 2-396]
study_system: aggrecanase-1 (Homo sapiens)
pIC50: > 6.00

Count: 5. Required value per item: pIC50.
1. NC(=O)OCC1(c2ccccc2)CC1(NS(=O)(=O)c1ccc(-c2cc(C(F)(F)F)on2)s1)C(=O)O (stereo not drawn) [Example 2-335]
2. CC(C)SCC1(c2ccccc2)CC1(NS(=O)(=O)c1ccc(-c2ccc(Cl)cc2)s1)C(=O)O (stereo not drawn) [Example 2-349]
3. O=C(O)C1(NS(=O)(=O)c2ccc(-c3ccc(Cl)cc3)s2)CC1(CCCn1cccn1)c1ccccc1 (stereo not drawn) [Example 2-273]
4. CC1[C@H](c2ccccc2)[C@]1(NS(=O)(=O)c1ccc(-c2cc(C(N)=O)on2)s1)C(=O)O (stereo partly drawn) [Example 2-578]
5. C[C@]1(c2ccccc2)C[C@@]1(NS(=O)(=O)c1ccc(-c2cc(C(F)F)no2)s1)C(=O)O [Example 2-422]

result:
1. > 6.00
2. > 7.00
3. > 7.00
4. > 6.00
5. > 7.00

Count: 4. Required value per item: pIC50.
1. CC1(c2cccc(F)c2)CC1(NS(=O)(=O)c1ccc(-c2cc(C(F)(F)F)on2)s1)C(=O)O (stereo not drawn) [Example 2-611]
2. CC1(c2cccc(Cl)c2)CC1(NS(=O)(=O)c1ccc(-c2cc(C(F)(F)F)on2)s1)C(=O)O (stereo not drawn) [Example 2-612]
3. C[C@]1(c2ccccc2)C[C@@]1(NS(=O)(=O)c1ccc(N2CCOCC2)s1)C(=O)O [Example 2-421]
4. C[C@]1(c2ccccc2)C[C@@]1(NS(=O)(=O)c1ccc(-c2ccc(F)c(O)c2)s1)C(=O)O [Example 2-600]

result:
> 7.00
> 7.00
≤ 6.00
> 6.00

Taken from patent US20080261994A1.
